measurement-target: Bile acid receptor (Mus musculus)
Sequence (whole entry): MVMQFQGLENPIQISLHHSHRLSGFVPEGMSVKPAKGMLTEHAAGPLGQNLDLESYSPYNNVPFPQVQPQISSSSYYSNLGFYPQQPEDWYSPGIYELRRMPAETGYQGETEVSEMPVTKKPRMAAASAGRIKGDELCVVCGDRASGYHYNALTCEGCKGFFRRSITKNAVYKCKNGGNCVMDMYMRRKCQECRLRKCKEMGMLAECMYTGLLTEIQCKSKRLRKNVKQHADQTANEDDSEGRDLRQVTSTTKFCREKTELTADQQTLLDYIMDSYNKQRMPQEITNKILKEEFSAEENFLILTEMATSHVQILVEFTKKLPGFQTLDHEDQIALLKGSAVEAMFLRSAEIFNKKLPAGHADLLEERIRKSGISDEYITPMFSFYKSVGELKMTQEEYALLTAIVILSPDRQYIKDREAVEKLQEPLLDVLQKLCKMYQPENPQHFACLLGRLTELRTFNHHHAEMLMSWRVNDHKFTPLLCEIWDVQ
experiment-description: Agonist activity at mouse FXR expressed in HEK293 cells co-expressing mouse RXRalpha and ECRE-luc up to 100 uM by luciferase reporter gene assay
Assay type: functional, cell-based
The source made the active and inactive calls. The calls are words filed in the database; no cut-off is given here.
measurement-name: Activity

O=C(O)c1cnc2cc(OCCOc3ccc(F)cc3)ccc2c1O | inactive
COc1ccc(/C(C)=N/NC(=O)CC(=O)N(C(=O)c2ccccc2)c2ccc(C)cc2)cc1 | inactive
Cc1cc(C(=O)CCCCCCCCC(=O)O)ccc1O | inactive
C[C@]12CC[C@H]3[C@@H](CCC4CC(=O)/C(=C\C(F)(F)F)C[C@@]43C)[C@@H]1CC[C@@H]2C(=O)O (stereo partly specified) | inactive
C1=C(c2ccc(OCc3ccccc3)c(OCc3ccccc3)c2)CC2CCCCC2C1 (stereo unspecified) | inactive

Please find the next molecule below.
Q. Which Activity value is on record for O=C(O)c1ccc(C(=O)c2ccc(C(=O)c3ccc(C(=O)O)cc3)cc2)cc1 ?
A. inactive
